Cited source for all entries: PubChem BioAssay

- ASSAY_OVERVIEW: binders from COS7 lysate, DM2A8 probe, primary screen, torsin A project, cell lysate, small-molecule microarray, fluorescence 635/667 (AID 1065)
- EXPERIMENTAL_PARAMETERS: higher = more signal, COS7 lysate expressing mutant human TOR1A
Entries annotated with measured composite z-score
# print the numeric value only

# count of solved cases: 3
C=CCN1Cc2ccccc2C[C@]2(N=C(c3ccc(OCCCO)cc3)O[C@@H]2c2ccccc2)C1=O ... 0.363
NC(=O)NCC#Cc1ccc2c(c1)[C@]1(C(=O)N2)[C@H](c2ccc(O)cc2)N2[C@H](c3ccccc3)[C@H](c3ccccc3)OC(=O)[C@H]2[C@@H]1C(=O)N1CCN(c2ncccn2)CC1 ... 0.585
CN(C)CCCCNC(=O)[C@@H]1C[C@@H]2C(=O)N[C@@H](CCCCN)C(=O)N2[C@@H]1c1cccc(OCCO)c1 ... -0.719

-- ask Returns the measured composite z-score for the input molecule. Input: COCCOC(=O)N1C(=O)[C@@]2(c3cc(C#CCCO)ccc31)[C@H](C(=O)NC[C@H](O)c1ccccc1)[C@H]1C(=O)O[C@H](c3ccccc3)[C@H](c3ccccc3)N1[C@@H]2c1ccc(OCCO)cc1
-- reply 0.271

-- ask Would you kindly repeat that for CC(=O)NCCCC[C@@H]1NC(=O)[C@@H]2C[C@H](C(=O)NCCCCCC[N+](C)(C)C)[C@H](c3cccc(OCCO)c3)N2C1=O ?
-- reply 1.23

-- ask Would you kindly repeat that for O=C(NCc1ccccc1)[C@@H]1c2ccccc2C(=O)N(Cc2cc(F)cc(C(F)(F)F)c2)[C@H]1c1ccc(CO)cc1 ?
-- reply 0.582

-- ask Would you kindly repeat that for O=C1C2C=CC(C(O)c3ccccn3)N(Nc3ccccc3F)C2C(=O)N1c1ccccc1 (configuration not stated) ?
-- reply 0.135

###

- TESTED_ON: Left-right determination factor 2 (Homo sapiens) (UniProt O00292)
- Sequence (O00292 whole entry, looked up): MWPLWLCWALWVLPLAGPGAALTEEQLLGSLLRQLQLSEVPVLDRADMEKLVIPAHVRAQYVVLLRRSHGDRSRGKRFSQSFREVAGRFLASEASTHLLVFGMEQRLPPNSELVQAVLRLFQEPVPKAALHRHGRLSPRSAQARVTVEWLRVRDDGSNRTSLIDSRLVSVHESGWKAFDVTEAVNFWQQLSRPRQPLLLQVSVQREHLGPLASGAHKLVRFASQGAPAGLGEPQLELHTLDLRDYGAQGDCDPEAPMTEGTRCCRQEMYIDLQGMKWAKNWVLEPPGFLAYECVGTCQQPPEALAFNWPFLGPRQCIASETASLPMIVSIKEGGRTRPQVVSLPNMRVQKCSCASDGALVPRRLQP
- ASSAY_OVERVIEW: small molecules binding LEFTY2 protein – biochemical, small-molecule microarray, 635 nm fluorescence scan, primary screen (AID 1110)
- EXPERIMENTAL_PARAMETERS: higher = more signal
Tick TRUE if composite z-score is -0.2 or greater. Tick FALSE if composite z-score is less than -0.2.

-- ask Item C=C(CCCC)/C(=C/C[C@H](OC(C)=O)c1ccc(CO)o1)c1cc(C(=O)OC)ccc1OC with composite z-score of -0.2 or above?
-- reply TRUE

-- ask Would you kindly repeat that for C=C(CCCC)C(=O)CC[C@@H](OC(=O)c1ccccc1-c1ccccc1C(=O)O)c1ccc(CO)o1 ?
-- reply TRUE

-- ask Would you kindly repeat that for CN1C(=O)C2C=CC(C(O)C(C)(C)C)N(Nc3ccccc3)C2C1=O (stereo not drawn) ?
-- reply FALSE

-- ask Would you kindly repeat that for Cn1c2c(c3ccccc31)C(=O)C1NC2C=CC1(C)C(=O)OCc1ccccc1 (stereo not drawn) ?
-- reply FALSE

-- ask Would you kindly repeat that for CC(C)C[C@@H]1NC(=O)[C@@H]2C[C@H](C(=O)NCCCCN(C)C)[C@H](c3ccc(O)cc3)N2C1=O ?
-- reply FALSE

-- ask Would you kindly repeat that for C=C(C(=O)CC[C@H](OC(=O)c1cccnc1)c1ccccc1OCCO)C(C)C ?
-- reply TRUE

-- ask Would you kindly repeat that for O=C(CS)NCCCCCCNC(=O)[C@H]1C[C@H]2C(=O)N3CCC[C@H]3C(=O)N2[C@H]1c1ccc(O)cc1 ?
-- reply TRUE

-- ask Would you kindly repeat that for COCCOC(=O)N1C(=O)[C@@]2(c3cc(C#Cc4ccc(OC)cc4)ccc31)[C@H](c1ccc(O)cc1)N1[C@H](c3ccccc3)[C@H](c3ccccc3)OC(=O)[C@H]1[C@@H]2C(=O)N1CCN(c2ncccn2)CC1 ?
-- reply TRUE

-- ask Would you kindly repeat that for [N-]=[N+]=NCc1ccccc1C[C@]1(C(=O)NCCN2CCOCC2)N=C(c2ccc(OCCCO)cc2)O[C@H]1c1ccccc1CN=[N+]=[N-] ?
-- reply TRUE

-- ask Would you kindly repeat that for CCCCCN1CC=CC23O[C@@H]4C=CCCOC(=O)C4[C@H]2C(=O)N(CCCO)[C@@H]3C1=O (stereo partly drawn) ?
-- reply FALSE

-- ask Would you kindly repeat that for Cc1c(NC(=O)/C(C#N)=C/C=C/c2ccccc2)c(=O)n(-c2ccccc2)n1C ?
-- reply TRUE

-- ask Would you kindly repeat that for [N-]=[N+]=NCc1ccccc1[C@H]1OC(c2ccc(OCCCO)cc2)=N[C@@]1(Cc1ccccc1)C(=O)NCC(O)CO (stereo partly drawn) ?
-- reply FALSE

-- ask Would you kindly repeat that for COc1ccc([Si](C)(C)[C@@H]2[C@@H](CC(=O)N3Cc4ccccc4C[C@H]3CO)O[C@]3(C(=O)N(Cc4cccc(N5C(=O)COc6ccccc65)c4)c4ccccc43)[C@H]2C)cc1 ?
-- reply TRUE

-- ask Would you kindly repeat that for C[C@H]1C2[C@H](Cc3ccccc3)NC(=O)[C@]23C(=O)N[C@H](Cc2ccccc2)C(=O)N[C@H](Cc2ccccc2)C(=O)NC/C=C/CCC/C=C/C3[C@@H]2O[C@]12C (stereo partly drawn) ?
-- reply TRUE

-- ask Would you kindly repeat that for CCOC(=O)C=Cc1cccc(OC)c1O ?
-- reply FALSE

-- ask Would you kindly repeat that for CCCCN1CC=CC23O[C@@H]4/C=C\CCCOC(=O)C4[C@H]2C(=O)N(C(C)CO)[C@@H]3C1=O (stereo partly drawn) ?
-- reply FALSE

-- ask Would you kindly repeat that for C=CC[C@@]1(C(N)=O)N=C(c2ccc(OCCCO)cc2)O[C@@H]1c1ccccc1N=[N+]=[N-] ?
-- reply TRUE

-- ask Would you kindly repeat that for COCCOC(=O)N1C(=O)[C@@]2(c3cc(C#CC4(O)CCCCCC4)ccc31)[C@H](c1ccc(O)cc1)N1[C@H](c3ccccc3)[C@H](c3ccccc3)OC(=O)[C@H]1[C@@H]2C(=O)N1CCc2cc(OC)c(OC)cc2C1 ?
-- reply FALSE

-- ask Would you kindly repeat that for CCCC[C@H]1OB(O)C[C@H]2C1=C(C)Cn1c(=O)n(-c3ccccc3)c(=O)n12 ?
-- reply TRUE

-- ask Would you kindly repeat that for C=CCOC(=O)[C@@H]1[C@H]2C(=O)O[C@H](c3ccccc3)[C@H](c3ccccc3)N2[C@H](c2ccc(OCCOC(=O)[C@H]3C[C@H]4C(=O)N[C@@H](Cc5ccccc5)C(=O)N4[C@H]3c3ccc(O)cc3)cc2)[C@@]12C(=O)Nc1ccc(I)cc12 ?
-- reply TRUE

-- ask Would you kindly repeat that for COCCOC(=O)N1C(=O)[C@@]2(c3cc(C#Cc4ccc(OC)cc4)ccc31)[C@H](c1ccc(OCCO)cc1)N1[C@H](c3ccccc3)[C@H](c3ccccc3)OC(=O)[C@H]1[C@@H]2C(=O)N1CCc2cc(OC)c(OC)cc2C1 ?
-- reply TRUE

-- ask Would you kindly repeat that for CO[C@H]1O[C@H](CO)[C@@H](OC(=O)Nc2cccc(F)c2)[C@H](OC(=O)Nc2ccccc2-c2ccccc2)[C@@H]1OC(=O)Nc1ccccc1-c1ccccc1 ?
-- reply TRUE

-- ask Would you kindly repeat that for C=CCC(OC(C)=O)[C@@H]1[C@@H](N(Cc2cc3ccccc3o2)C(=O)c2cccc3ccccc23)c2cc(OCCCO)ccc2N1C(=O)Cc1ccc(OC)cc1 (stereo partly drawn) ?
-- reply TRUE
